So I've got a bunch of molecules here, and I need their inhibition values.
- experimentalTarget: Glucose transporter (Leishmania mexicana) (UniProt O61059)
- experimentalProtocol: ST_JUDE_LEISH: Cytotoxicity at 2uM final concentration against transgenic Leishmania Mexicana promastigotes LmGT2 that are glucose transport deficient and complemented with the L. Mexicana glucose transporter 2. Activity is measured by DNA content using SYBR green in vitro
- Format: functional
State the answer as a number, implicitly in %.

So what's the measured inhibition for this one? COc1ccc2nccc([C@@H](O)CN3CCC(NCc4cc5ccc(Cl)cc5[nH]4)CC3)c2c1
4.6

# lookup: inhibition of O=C(Nc1cccc(-c2cccc(-c3nc4ccccc4[nH]3)c2)c1)c1cccnc1
0.76

Any idea what its inhibition is? The molecule is COc1ccc2nccc([C@@H](O)CN3CCC(NC(=O)C(c4cc5ccccc5o4)N4CCN(Cc5ccccc5)CC4)CC3)c2c1 (some centres not stated)
0.77

Requested read-out: inhibition. Entry: Oc1ccc(CCCNc2nc(NCc3cccc4ccccc34)nc(NC3CCNCC3)n2)cc1
2

Look up inhibition: O=C(/C=C/c1ccc(F)cc1)NC1CCC(CCN2CCCN(c3ccc(C(F)(F)F)cn3)CC2)CC1 (configuration not stated)
-1.02

Tell me the measured inhibition of CCOC(=O)c1c(-c2ccccc2)nc2c(sc3ccccc32)c1O , please.
5.35

# query: inhibition of entry O=C(Nc1cccc(CN2CCCN(Cc3ccc(O)cc3)CC2)c1)c1cc2ccccc2s1
-2.92

inhibition lookup needed for O=C(Nc1cccc(CN2CCCN(Cc3cccnc3)CC2)c1)c1ccc(Cl)c(Cl)c1 , thanks.
5.38

I'd like to know its inhibition. The molecule in question is Cc1nc(NC2=NCN(CCCN3CCOCC3)CN2)nc2c(C)cccc12
11

May I ask what inhibition has been recorded for COc1ccc(-c2ccccc2CNc2nc(NCCc3ccc(O)cc3)nc(N3CCNCC3)n2)cc1 ?
0.12

// returns reported inhibition for input CN(C(=O)Cc1ccc(Cl)cc1)C1CCN(CCCCCNC(=O)/C=C/c2ccc(Cl)c(Cl)c2)CC1
1.99

What value of inhibition has been reported for the following molecule? CCCOc1cccc(C(=O)N[C@@H](Cc2ccccc2)[C@H](O)CNCc2ccccc2OC)c1
4.75

What value of inhibition has been reported for the following molecule? CCCCCCCCN1CCN(CCCCCCNc2c3ccccc3nc3ccccc23)CC1
61.1

// query inhibition value for entry CC(=O)Nc1ncc(C(=O)Nc2cccc(-c3ccc(-c4nc5cccc(C)c5[nH]4)cc3)c2)s1
0.54

Given the molecule C#CCNC(=O)c1ccc(-c2ccnc(Nc3cccc(CCCN4CCOCC4)c3)n2)s1 , what is its reported inhibition?
27.2

Quick check: inhibition of Cc1[nH]c2ccc(-c3ccc(N(C)C)cc3)cc2c(=O)c1Cl ?
2.73

Return reported inhibition; argument: Cc1cc(F)ccc1Nc1nc(N(C)c2ccccc2)c2cc(OCCN(C)C)ccc2n1
2.04

Which inhibition value is on record for Nc1ccc(-c2ccc3ccnc(N)c3c2)cc1 ?
1.39

Item CCOc1ccc2nc(N(CCCn3ccnc3)C(=O)C=Cc3cccs3)sc2c1 has what recorded inhibition?
-8.76

What value of inhibition has been recorded for this entry: CCCNc1nc(Nc2ccccc2C)nc2ccccc12
13.8

I'd like to know its inhibition. The molecule in question is Cc1cc(C)c2oc(-c3cccc(NC(=O)c4ccc([N+](=O)[O-])o4)c3C)nc2c1
1.45

Would you mind telling me what inhibition value was observed for Cc1ccc(Cn2nc(Cl)c(N3CCCNCC3)cc2=O)cc1NC(=O)Nc1ccc(-c2ccccc2)cc1 ?
-1.28

Which inhibition value is on record for CCC(C)C(COC(=O)c1cc(OC)c(OC)c(OC)c1)N(C)CCN(C)C(COC(=O)c1cc(OC)c(OC)c(OC)c1)C(C)CC (configuration not stated) ?
-0.47

Which inhibition is listed for COc1ccc(CCNc2nc(SCc3ccccc3Cl)nc3ccccc23)cc1OC ?
1.42

Report inhibition for CC(C)(C(=O)Nc1ccc(N2CCC3(CCCN(CC4CC4)C3)CC2)c(Cl)c1)c1cccc(C(F)(F)F)c1 please.
1.72

I would be grateful if you could share the reported inhibition for N#Cc1ccc(-c2cnc3ccc(NCc4ccc(S(N)(=O)=O)cc4)nn23)cc1 .
0.38

inhibition for Cc1nnsc1C(=O)Nc1cccc(-c2cccc(-c3nc4ccccc4[nH]3)c2)c1 ?
-2.07

So what's the measured inhibition for this one? CCCCc1ccc(C(=O)Nc2ccc3nc(N4CCN(CC)CC4)cc(C)c3c2)cc1
-1.24

For the molecule shown here, Cc1cc2nc(-c3ccc(/C=C/C(=O)NCCCc4ccccc4)cc3)[nH]c2cc1C , give the reported inhibition.
1.65

If you can, please state the reported inhibition value of COc1ccc(-c2ccc(NC(=O)c3ccc(C#N)cc3)cc2)cc1CN(C)CCN(C)C .
1.19

Entry under review: CCn1cc(CN2C(=O)C(c3ccccc3)(c3ccccc3)N=C2N)cn1 . Reported inhibition?
-1.54

Need inhibition, item C=CCc1ccc(C2CCN(CCCCNC(=O)c3ccc(NC(=O)c4ccc(Cl)cc4)cc3)CC2)cc1
0.46

---

- experimentalTarget: Hexose transporter 1 (Plasmodium falciparum)
- experimentalProtocol: ST_JUDE_LEISH: Cytotoxicity at 2uM final concentration against transgenic Leishmania Mexicana promastigotes LmPfHT that are glucose transport deficient and complemented with the Plasmodium falciparum hexose transporter. Activity is measured by DNA content using SYBR green in vitro
- Type: functional
Consider the following compounds; for each one, report its inhibition.
Provide only the numeric value, understood in %.

Entry under review: Cc1cccc2nc(-c3cccc(-c4cccc(CN5CCN(c6ccncc6)CC5)c4)c3)[nH]c12 . Reported inhibition?
0.76

# lookup: inhibition of CN(C)Cc1cccc(-c2cc3c(-c4cnn(C)c4)c(Cl)cnc3[nH]2)c1
95

Entry O=C(/C=C/c1ccc(Cl)c(Cl)c1)NC1CCC(CN2CCC(c3cc4ccccc4[nH]3)CC2)CC1 (stereo not given) has what inhibition?
2.67

Which inhibition value is on record for Cc1cc(-c2ccc(S(=O)(=O)Nc3cc4c(cc3OC(C)C)CCN(C)CC4)cc2)ccc1Cl ?
-1.99

Could you share which inhibition value was measured for COc1ccc(N2CCN(CCCCNC(=O)c3ccc(NC(=O)c4cccc(Cl)c4)cc3)CC2)c(OC)c1 ?
0.48

---

- experimentalTarget: Hexose transporter 1 (Plasmodium falciparum) (UniProt O97467)
- experimentalProtocol: ST_JUDE_LEISH: Cytotoxicity at 2uM final concentration against transgenic Leishmania Mexicana promastigotes LmPfHT that are glucose transport deficient and complemented with the Plasmodium falciparum hexose transporter. Activity is measured by DNA content using SYBR green in vitro
- Type: functional
readoutName: inhibition (%)
Give the value in % but do not write % after it.

Bench note: what inhibition did CCCCN(CCCC)CCCCNc1c2ccccc2nc2ccccc12 show?
31.3

Endpoint output: inhibition of Cc1[nH]c(C)c(-c2ccc(C#Cc3ccc(F)cc3F)cc2)c(=O)c1Br . Value?
1.21

Record request: inhibition value, item C[C@@H]([C@@H](CCCc1ccc(Cl)cc1)C(=O)N[C@H](C(=O)Nc1cccnc1)C(C)(C)C)N(O)C=O
0.19

GET /values?readout=inhibition&item= c1ccc2[nH]c(CN(Cc3nc4ccccc4[nH]3)Cc3nc4ccccc4[nH]3)nc2c1
1.73

What inhibition value was documented for this compound, CCCCCCCN(Cc1ccc(OC(C)(C)C(=O)OCC)cc1)C(=O)Nc1ccccc1OC(F)(F)F ?
-1.12

Please give the measured inhibition for this compound: COc1ccc(CC(C)CON2C(N)=NC(N)=NC2(C)C)cc1 (centres undefined)
4.35

Fill in the blank: the reported inhibition of Cc1cc2nc(N=C3NC4(c5ccccn5)NC(=Nc5nc6cc(C)c(C)cc6[nH]5)NC4(c4ccccn4)N3)[nH]c2cc1C (centres undefined) is ____.
-0.16

Using the record for Cc1cc(Cl)c(Cl)cc1NC(=O)Nc1cccc(C(F)(F)F)c1 , report its inhibition.
-0.59

Look up inhibition: FC(F)(F)c1ccc2[nH]c(-c3ccc(-c4ccc(CNCC5CCCO5)cc4)cc3)nc2c1 (centres undefined)
2.61

Please report the recorded inhibition for O=C(Nc1cccc(C(F)(F)F)c1)c1cc([N+](=O)[O-])cc2cn[nH]c12 .
5.74

What value of inhibition has been recorded for this entry: COc1ccc2ncc(C#N)c(CCN3CCC(NCc4ccc5c(c4)NC(=O)CO5)CC3)c2c1
9.55

Entry under review: O=c1cc(NCCCNCc2cc3c(Cl)cc(Cl)cc3[nH]2)[nH]c2ccccc12 . Reported inhibition?
-0.16

Record request: inhibition value, item CN1CCN(Cc2cc3cc(NC(=O)/C=C/c4cccc(Cl)c4)ccc3s2)CC1
0.04

Please look up its inhibition: O=C(NCCc1cccc(F)c1)c1cc(Br)cc(N2CCN(c3ccncc3)CC2)c1
5.57

Any idea what inhibition was measured for Cc1cc(-c2ccc(Cl)cc2)c2c(N)c(C(=O)Nc3ccc(F)cc3)sc2n1 ?
-2.52

Reported inhibition for COc1cc(NC(=O)c2sc(-c3ccc(Cl)cc3)cc2NC(=O)N2CCCC2)ccc1OCCN1CCCC1 : what is it?
3.29

Which inhibition is reported for this compound? CCn1c(SC)nnc1C1CCCN(CC(=O)Nc2nc3ccc(OC)cc3s2)C1 (centres undefined)
3.27

What value of inhibition has been reported for the following compound? CC1(C)NC(N)=NC(=N)N1OCCCCOc1ccc(Cl)cc1C1CCCCC1
26.4

May I ask what inhibition has been recorded for CC(O)C1CCCCN1C(=O)c1cccc(-c2cccc(-c3nc4ccccc4[nH]3)c2)c1 (centres undefined) ?
0.15

Item under review: Cc1nc2nc(N)nc(N)c2c(C)c1Cc1ccc(N)cc1 . Reported inhibition?
8.1

Query (compound): COc1cccc(C(=O)NCc2nnc(S)n2-c2ccc(Cl)c(Cl)c2)c1 ; field requested: inhibition
0.68

// lookup inhibition for CCNCc1ccc(-c2cc3ncnc(Nc4ccc(OCc5cccc(F)c5)c(Cl)c4)c3s2)[nH]1
-3.14

Entry CC1=NN(c2ccc(C)c(C)c2)C(=O)C1=NNc1cccc(-c2cccc(NC(=O)OC(C)(C)C)c2)c1O has what inhibition?
1.44

Value lookup for inhibition; key = CC1CN(Cc2ccc(-c3ccc(-c4nc5cc(F)ccc5[nH]4)s3)cc2)CC(C)O1 (centres undefined)
4.68

If you can, please state the reported inhibition value of COc1ccc(NS(=O)(=O)c2ccc(C(=O)Nc3ccc(OC(F)(F)F)cc3)cc2)cc1N1CCN(CC2CC2)CC1 .
5.3

Reported inhibition, compound CC(C)(C)c1ccc(/C=C/C(=O)NCCCCCN2CCC(c3c[nH]c4ccccc34)CC2)cc1 : ____
4.13

Quick check: inhibition of C=CCN(C(=O)c1ccc(Cl)c([N+](=O)[O-])c1)c1nc(-c2ccccc2)cs1 ?
9.45

Looking for the measured inhibition of Cc1ccc2c(NC(=O)Nc3ccc(N(C)C)cc3)cc(C)nc2c1 , can you help?
5.56

Could you tell me which inhibition is on file for COCCNCc1cccc(-c2cc3nccc(Nc4ccc(Oc5ccccc5)cc4)c3cc2Cl)c1 ?
2.37
